Please provide measured Delta MABP for the entries that follow.
target_system: Angiotensin-converting enzyme (Rattus norvegicus) (UniProt P47820)
test_method_notes: Change in mean arterial blood pressure (MABP) after 20 mg/kg (po) dosage in Aorta-Coated renal hypertensive rat at 0.5 h
Format: functional, organism-based
Set-up: dose 20 mg/kg
The answer is to be given in mmHg; state only the numeric part.

Q: Need Delta MABP of O=C(SC(CC(=O)N1CCCC1C(=O)O)C(=O)c1cccc(F)c1)c1ccccc1 (stereo not given) , thanks.
A: -41

Q: And the next one, CC(=O)S[C@@H](C(=O)c1ccccc1)[C@@H](C)C(=O)N1CCC[C@H]1C(=O)O ?
A: -22.4

Q: Okay, and C[C@H](CS)C(=O)N1CCC[C@H]1C(=O)O ?
A: -27.7

Q: Likewise for CC(=O)SC(CC(=O)N1CCCC1C(=O)O)C(=O)c1ccc2ccccc2c1 (stereo not given) ?
A: -17.3

Q: Similarly, O=C(SC(CC(=O)N1CCCC1C(=O)O)C(=O)c1ccccc1)c1ccccc1 (stereo not given) ?
A: -1

Q: Please answer likewise for CC(=O)S[C@H](C(=O)c1ccc(Br)cc1)[C@@H](C)C(=O)N1CCC[C@H]1C(=O)O
A: -23.5

Q: What do you have for CC(=O)SC(CC(=O)N1CCCC1C(=O)O)C(=O)c1ccc2c(c1)CCC2 (stereo not given) ?
A: -18.5

Q: Another compound to look at: CC(=O)SC(C(=O)c1ccc(Cl)cc1)C(C)C(=O)N1CCCC1C(=O)O (stereo not given)
A: -24

Q: Repeat for the following compound: CC(=O)SC(CC(=O)N1CCCC1C(=O)O)C(=O)c1cccc(C(F)(F)F)c1 (stereo not given)
A: -17.5

Q: Thanks! And O=C(SC(CC(=O)N1CCCC1C(=O)O)C(=O)c1ccc(F)cc1)c1ccccc1 (stereo not given) ?
A: -12

###

target_system: Angiotensin-converting enzyme (Rattus norvegicus)
Sequence (whole entry): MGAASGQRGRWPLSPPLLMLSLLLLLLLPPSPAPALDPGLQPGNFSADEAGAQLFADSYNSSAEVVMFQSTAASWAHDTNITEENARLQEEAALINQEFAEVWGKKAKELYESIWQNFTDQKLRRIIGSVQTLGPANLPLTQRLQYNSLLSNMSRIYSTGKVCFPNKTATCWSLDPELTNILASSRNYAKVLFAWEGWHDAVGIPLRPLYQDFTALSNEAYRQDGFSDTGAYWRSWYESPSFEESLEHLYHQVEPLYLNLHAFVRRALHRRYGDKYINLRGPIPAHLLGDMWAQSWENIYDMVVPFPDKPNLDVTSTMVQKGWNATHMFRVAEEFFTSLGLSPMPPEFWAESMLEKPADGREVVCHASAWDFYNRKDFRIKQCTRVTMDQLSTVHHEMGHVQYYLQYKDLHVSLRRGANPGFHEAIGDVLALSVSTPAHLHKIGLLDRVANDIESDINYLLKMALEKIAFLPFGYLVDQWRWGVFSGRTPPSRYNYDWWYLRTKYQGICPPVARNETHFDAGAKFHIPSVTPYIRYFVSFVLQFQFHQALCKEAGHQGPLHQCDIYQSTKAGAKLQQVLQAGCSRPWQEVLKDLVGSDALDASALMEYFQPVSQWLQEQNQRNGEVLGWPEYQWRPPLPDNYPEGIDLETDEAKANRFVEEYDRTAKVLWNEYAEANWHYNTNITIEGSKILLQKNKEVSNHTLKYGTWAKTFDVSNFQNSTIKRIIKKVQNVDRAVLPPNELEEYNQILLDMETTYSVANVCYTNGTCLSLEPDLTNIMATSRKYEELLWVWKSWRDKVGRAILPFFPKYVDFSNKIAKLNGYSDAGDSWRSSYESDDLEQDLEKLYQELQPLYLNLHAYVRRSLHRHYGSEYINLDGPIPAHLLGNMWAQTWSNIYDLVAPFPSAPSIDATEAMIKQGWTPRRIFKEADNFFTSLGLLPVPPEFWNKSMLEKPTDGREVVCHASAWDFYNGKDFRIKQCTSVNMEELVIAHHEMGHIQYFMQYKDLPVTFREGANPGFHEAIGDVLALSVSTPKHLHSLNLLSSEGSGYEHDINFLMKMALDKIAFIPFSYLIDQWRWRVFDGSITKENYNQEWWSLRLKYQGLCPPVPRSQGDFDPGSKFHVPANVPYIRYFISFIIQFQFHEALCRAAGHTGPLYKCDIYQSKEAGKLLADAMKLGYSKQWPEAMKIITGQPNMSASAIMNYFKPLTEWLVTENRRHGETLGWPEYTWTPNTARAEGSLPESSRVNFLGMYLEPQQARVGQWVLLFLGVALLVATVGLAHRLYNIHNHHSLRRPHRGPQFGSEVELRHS
test_method_notes: Change in mean arterial blood pressure (MABP) after 20 mg/kg (po) dosage in Aorta-Coated renal hypertensive rat at 2.0 h
Type: functional, organism-based
Design: dose 20 mg/kg
experimental_endpoint: Delta MABP

Q: Give recorded Delta MABP with Angiotensin-converting enzyme (Rattus norvegicus) for the following compound: COc1ccc(C(=O)C(CC(=O)N2CCCC2C(=O)O)SC(C)=O)cc1F (stereo not drawn)
A: -11 mmHg

Q: Continue with C[C@H](CS)C(=O)N1CCC[C@H]1C(=O)O
A: -21.7 mmHg

Q: Same for CC(=O)S[C@H](C(=O)c1ccccc1)[C@@H](C)C(=O)N1CCC[C@H]1C(=O)O
A: -23.2 mmHg
